System: HCT-116 colon
Assay: NCI-60 one-dose screen, 48 h (100 = growth as untreated, 0 = no growth, -100 = all killed)
Conditions: 10 µM unless noted
Experimental: Growth inhibition of the HCT-116 human tumor cell line is measured as a screen for anti-cancer activity. Cells are grown in 96 well plates and exposed to the test compound for 48 hours. Compounds are tested at a single concentration, which is 10^-5 M for most compounds. The reported endpoint is percent growth (GI% or GIPRCNT), where numbers from 0 - 100% represent growth inhibition, and numbers from -100% - 0 represent cell death. For example, a value of 40 represents 60% growth inhibition. […]
This is part of a sample that, as a whole, favours compounds with a hit. Of some 83,000 tested, about 20% had one in any assay.
The following compounds are shown together with reported growth values.
Note: unit % is implicit; provide only the numeric part.

Please review the following examples before continuing.
compound	test-value
COc1ccc(C(SCCNCc2cc(N(C)C)ccn2)(c2ccccc2)c2ccccc2)cc1	-27
Nc1nc(-c2ccccc2)c(N=Nc2ccc(Cl)cc2[N+](=O)[O-])s1	97.1
CC(=O)OC[C@@]1(C)C2CC[C@]3(C)C(CC=C4C5CC(C)(C)CC[C@]5(C(=O)Nc5ccc(Br)cc5)CC[C@]43C)[C@@]2(C)C[C@@H](OC(C)=O)[C@@H]1OC(C)=O (stereo not given in full)	24.6

Qu. Report measured growth on HCT-116 colon; entry: O=C1/C(=C/C2=Cc3ccccc3OC2)SC(=S)N1c1ccccc1F
Ans. 96.4

Qu. Report measured growth on HCT-116 colon; entry: CSc1ccc(NC(=O)c2ccc3nn(/C(C#N)=C/c4ccccn4)nc3c2)cc1
Ans. -73.9

Qu. Report measured growth on HCT-116 colon; entry: O=c1oc2ccccc2cc1-c1csc(N2N=C(c3ccccc3)CC2c2ccc(N3CCOCC3)cc2)n1 (stereo not given)
Ans. 109

Qu. Report measured growth on HCT-116 colon; entry: Cc1ccc(C(=O)C(c2c[nH]c3ccccc23)c2c[nH]c3ccccc23)cc1
Ans. -62.3

Qu. Report measured growth on HCT-116 colon; entry: O=C(/C=C/Nc1ccc(Cl)cc1)c1ccc2c(c1)Nc1ccccc1S2
Ans. 39.2
